Target: Serine/threonine-protein kinase MARK1 (Homo sapiens)
Settings: at 10 µM
recordedEndpoint: residual activity
The reply should consist of the numeric value with the unit placed after it.

Check out these entries, answers already filled in.
Which residual activity value is on record for "N#Cc1cnc2cnc(NCc3cccnc3)cc2c1Nc1ccc(F)c(Cl)c1" ?
-1%

Which residual activity value is on record for "CC(C)n1cnc2c(NCc3ccccc3)nc(NCCCO)nc21" ?
81%

Which residual activity value is on record for "O=Nc1c(-c2c(O)[nH]c3ccccc23)[nH]c2ccccc12" ?
5%

Which residual activity value is on record for "Cc1cccc(-c2[nH]c(C(C)(C)C)nc2-c2ccc3c(c2)OCO3)n1" ?
77%

Which residual activity value is on record for "CCN(CC)C(=O)c1ccc(Nc2nc(OCC3CCCCC3)c3nc[nH]c3n2)cc1" ?
17%

Which residual activity value is on record for "CCOc1cc2ncnc(Nc3cccc(Br)c3)c2cc1OCC" ?
69%

Which residual activity value is on record for "COc1cc2ncc(-c3ccccc3)nc2cc1OC" ?
80%

Which residual activity value is on record for "Cc1cc(Nc2nc(-c3ccccc3)nc3ccccc23)n[nH]1" ?
26%

Hi team, please reply with residual activity for each item in this list.
1. CN(C)CCCn1cc(C2=C(c3c[nH]c4ccccc34)C(=O)NC2=O)c2ccccc21
2. COc1ccc(S(=O)(=O)N(CCO)c2ccccc2CN(C)C/C=C/c2ccc(Cl)cc2)cc1

25%
77%

====

Molecular target: Tyrosine-protein kinase Mer (Homo sapiens)
Conditions: at 1 µM
recordedEndpoint: residual activity (%)
Give bare numbers, in %.

Which residual activity value is on record for "Oc1n[nH]c2nnc(-c3c(-c4ccccc4)nn4ccccc34)cc12" ?
98

Which residual activity value is on record for "Cn1cnc2cc3c(Nc4cccc(Br)c4)ncnc3cc21" ?
79

Which residual activity value is on record for "NC(=O)c1ccc2[nH]c(-c3ccc(Oc4ccc(Cl)cc4)cc3)nc2c1" ?
95

Hi team, please reply with residual activity for each item in this list.
1. CC#CC(=O)Nc1cc2c(Nc3ccc(F)c(Cl)c3)ncnc2cn1
2. Nc1nc(Nc2ccc(S(N)(=O)=O)cc2)nn1C(=S)Nc1c(F)cccc1F
3. Ic1cccc(CSc2nnc(-c3ccncc3)o2)c1
4. Cc1cc2ncc(-c3ccccc3)nc2cc1C
5. CO[C@H]1C[C@@H]2CC[C@@H](C)[C@@](O)(O2)C(=O)C(=O)N2CCCC[C@H]2C(=O)O[C@H]([C@H](C)C[C@@H]2CC[C@@H](O)[C@H](OC)C2)CC(=O)[C@H](C)/C=C(\C)[C@@H](O)[C@@H](OC)C(=O)[C@H](C)C[C@H](C)/C=C/C=C/C=C/1C
6. Cc1cccc(-c2[nH]c(C(C)(C)C)nc2-c2ccc3c(c2)OCO3)n1
7. Cn1cc(/C=C2\C(=O)Nc3ccc(S(N)(=O)=O)cc32)c2ccccc21

1. 107
2. -1
3. 69
4. 107
5. 101
6. 107
7. 22

Which residual activity value is on record for "Nc1ccc2ncnc(NCCc3ccc(Oc4ccccc4)cc3)c2c1" ?
95

====

Biological target: Vascular endothelial growth factor receptor 1 (Homo sapiens) (UniProt P17948)
Sequence (P17948 whole entry): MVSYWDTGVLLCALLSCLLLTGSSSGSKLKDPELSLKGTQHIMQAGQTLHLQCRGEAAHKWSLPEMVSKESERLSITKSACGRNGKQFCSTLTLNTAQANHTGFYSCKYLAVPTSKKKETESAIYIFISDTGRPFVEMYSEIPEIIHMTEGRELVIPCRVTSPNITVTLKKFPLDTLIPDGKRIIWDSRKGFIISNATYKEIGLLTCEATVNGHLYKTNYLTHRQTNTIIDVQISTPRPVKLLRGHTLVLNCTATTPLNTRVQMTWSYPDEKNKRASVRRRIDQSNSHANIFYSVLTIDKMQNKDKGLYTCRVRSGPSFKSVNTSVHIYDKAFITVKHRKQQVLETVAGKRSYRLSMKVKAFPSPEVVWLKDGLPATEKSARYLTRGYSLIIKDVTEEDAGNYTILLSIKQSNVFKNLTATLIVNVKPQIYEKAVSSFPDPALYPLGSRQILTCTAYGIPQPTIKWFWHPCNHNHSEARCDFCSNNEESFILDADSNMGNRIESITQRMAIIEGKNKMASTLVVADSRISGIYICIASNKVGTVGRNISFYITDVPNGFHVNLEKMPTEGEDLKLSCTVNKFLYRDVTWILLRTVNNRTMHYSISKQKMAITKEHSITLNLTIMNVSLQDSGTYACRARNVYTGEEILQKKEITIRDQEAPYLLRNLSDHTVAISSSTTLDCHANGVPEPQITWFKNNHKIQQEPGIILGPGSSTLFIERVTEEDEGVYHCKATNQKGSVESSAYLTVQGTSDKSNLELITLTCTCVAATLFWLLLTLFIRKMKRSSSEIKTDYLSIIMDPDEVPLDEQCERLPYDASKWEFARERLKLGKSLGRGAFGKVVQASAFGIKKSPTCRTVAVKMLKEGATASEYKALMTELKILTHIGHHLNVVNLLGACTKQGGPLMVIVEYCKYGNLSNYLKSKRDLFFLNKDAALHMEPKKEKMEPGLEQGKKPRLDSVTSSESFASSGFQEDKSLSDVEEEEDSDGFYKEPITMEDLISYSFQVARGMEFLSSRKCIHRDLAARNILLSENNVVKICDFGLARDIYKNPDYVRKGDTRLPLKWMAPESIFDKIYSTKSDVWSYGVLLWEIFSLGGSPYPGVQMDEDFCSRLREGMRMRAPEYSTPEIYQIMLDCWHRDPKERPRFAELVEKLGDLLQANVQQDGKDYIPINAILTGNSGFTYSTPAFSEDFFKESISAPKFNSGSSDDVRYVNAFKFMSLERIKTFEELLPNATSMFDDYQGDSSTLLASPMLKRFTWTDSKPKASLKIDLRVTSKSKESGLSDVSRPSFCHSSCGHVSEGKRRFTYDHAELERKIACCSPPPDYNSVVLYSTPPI
Conditions: at 10 µM
Give measured residual activity for each item. Keep answers brief.
Give bare numbers, in %.

What measured residual activity is associated with "O=[N+]([O-])c1ccc(-c2nc(-c3ccc(F)cc3)c(-c3ccncc3)[nH]2)cc1" on Vascular endothelial growth factor receptor 1 (Homo sapiens) (UniProt P17948)?
46

What measured residual activity is associated with "Ic1cccc(CSc2nnc(-c3ccncc3)o2)c1" on Vascular endothelial growth factor receptor 1 (Homo sapiens) (UniProt P17948)?
19

What measured residual activity is associated with "CO[C@H]1[C@@H](OC)C[C@H](C)[C@@H](OC)C2=CC(=O)C=C(NC(=O)/C(C)=C/C=C/[C@H](OC)[C@@H](OC(N)=O)/C(C)=C/[C@@H]1C)C2=O" on Vascular endothelial growth factor receptor 1 (Homo sapiens) (UniProt P17948)?
95

What measured residual activity is associated with "COc1ccc(OC)c2c(=S)c3ccccc3[nH]c12" on Vascular endothelial growth factor receptor 1 (Homo sapiens) (UniProt P17948)?
77

What measured residual activity is associated with "COc1ccc(S(=O)(=O)N(CCO)c2ccccc2CN(C)C/C=C/c2ccc(Cl)cc2)cc1" on Vascular endothelial growth factor receptor 1 (Homo sapiens) (UniProt P17948)?
92

What measured residual activity is associated with "CCN(CC)C(=O)c1ccc(Nc2nc(OCC3CCCCC3)c3nc[nH]c3n2)cc1" on Vascular endothelial growth factor receptor 1 (Homo sapiens) (UniProt P17948)?
2

Let's switch to this molecule now.
What measured residual activity is associated with "O=C(O)c1ccc2c3c1cccc3c(=O)n1c3ccccc3nc21" on Vascular endothelial growth factor receptor 1 (Homo sapiens) (UniProt P17948)?
81

====

Target: Activin receptor type-1B (Homo sapiens)
Conditions: at 1 µM
Give measured residual activity for each item. Keep answers brief.
Give bare numbers, in %.

What measured residual activity is associated with "O=c1c2ccccc2[nH]c(=S)n1CCN1CCC(=C(c2ccc(F)cc2)c2ccc(F)cc2)CC1" on Activin receptor type-1B (Homo sapiens)?
149

What measured residual activity is associated with "O=C1Nc2cc(Br)ccc2/C1=C1/Nc2ccccc2/C1=N\O" on Activin receptor type-1B (Homo sapiens)?
109

Let's switch to this molecule now.
What measured residual activity is associated with "CC[n+]1c(/C=C/N(C)c2ccccc2)n(-c2ccccc2)c2ccc(-c3nc4ccccc4s3)cc21" on Activin receptor type-1B (Homo sapiens)?
122

====

Give measured residual activity for each item. Keep answers brief.
Biological target: Tyrosine-protein kinase ITK/TSK (Homo sapiens)
Details: at 10 µM
Numbers only, in %.

Check out these entries, answers already filled in.
Which residual activity value is on record for "CCN(CC)CCCCN1c2ccccc2Oc2ccc(Cl)cc21" ?
102

Which residual activity value is on record for "Oc1ccc(Nc2nc(-c3ccc(Cl)cc3)cs2)cc1" ?
95

Which residual activity value is on record for "CC(C)n1cnc2c(NCc3ccccc3)nc(NCCCO)nc21" ?
96

Hi team, please reply with residual activity for each item in this list.
1. CO[C@H]1[C@@H](OC)C[C@H](C)[C@@H](OC)C2=CC(=O)C=C(NC(=O)/C(C)=C/C=C/[C@H](OC)[C@@H](OC(N)=O)/C(C)=C/[C@@H]1C)C2=O
2. O=c1c2ccccc2[nH]c(=S)n1CCN1CCC(=C(c2ccc(F)cc2)c2ccc(F)cc2)CC1
3. Nc1ccc2ncnc(NCCc3ccc(Oc4ccccc4)cc3)c2c1
4. CC#CC(=O)Nc1cc2c(Nc3ccc(F)c(Cl)c3)ncnc2cn1
5. Oc1n[nH]c2nnc(-c3c(-c4ccccc4)nn4ccccc34)cc12
6. Cc1cccc(-c2[nH]c(C(C)(C)C)nc2-c2ccc3c(c2)OCO3)n1

1: 107; 2: 96; 3: 94; 4: 92; 5: 102; 6: 103

Hi team, please reply with residual activity for each item in this list.
1. O=C(Nc1cccc(Nc2nccc(Nc3cccc(C(F)(F)F)c3)n2)c1)C1CC1
2. Oc1c2ccccc2c2c3c(cccc13)N=N2
3. C[C@@H](N)[C@H]1CC[C@H](C(=O)Nc2ccncc2)CC1
4. Cn1cnc2cc3c(Nc4cccc(Br)c4)ncnc3cc21
5. CO[C@@H]1[C@H](N(C)C(=O)c2ccccc2)C[C@H]2O[C@]1(C)n1c3ccccc3c3c4c(c5c6ccccc6n2c5c31)C(=O)NC4
6. COc1ccc(OC)c2c(=S)c3ccccc3[nH]c12
7. O=C1NC(=O)c2cc(Nc3ccc(F)cc3)c(Nc3ccc(F)cc3)cc21

56
21
104
87
31
97
101

Hi team, please reply with residual activity for each item in this list.
1. CCN(CC)C(=O)c1ccc(Nc2nc(OCC3CCCCC3)c3nc[nH]c3n2)cc1
2. c1ccc(-c2n[nH]cc2-c2ccnc3ccccc23)nc1

2
104

====

Give measured residual activity for each item. Keep answers brief.
Target: RAF proto-oncogene serine/threonine-protein kinase (Homo sapiens) (UniProt P04049)
Sequence (P04049 whole entry): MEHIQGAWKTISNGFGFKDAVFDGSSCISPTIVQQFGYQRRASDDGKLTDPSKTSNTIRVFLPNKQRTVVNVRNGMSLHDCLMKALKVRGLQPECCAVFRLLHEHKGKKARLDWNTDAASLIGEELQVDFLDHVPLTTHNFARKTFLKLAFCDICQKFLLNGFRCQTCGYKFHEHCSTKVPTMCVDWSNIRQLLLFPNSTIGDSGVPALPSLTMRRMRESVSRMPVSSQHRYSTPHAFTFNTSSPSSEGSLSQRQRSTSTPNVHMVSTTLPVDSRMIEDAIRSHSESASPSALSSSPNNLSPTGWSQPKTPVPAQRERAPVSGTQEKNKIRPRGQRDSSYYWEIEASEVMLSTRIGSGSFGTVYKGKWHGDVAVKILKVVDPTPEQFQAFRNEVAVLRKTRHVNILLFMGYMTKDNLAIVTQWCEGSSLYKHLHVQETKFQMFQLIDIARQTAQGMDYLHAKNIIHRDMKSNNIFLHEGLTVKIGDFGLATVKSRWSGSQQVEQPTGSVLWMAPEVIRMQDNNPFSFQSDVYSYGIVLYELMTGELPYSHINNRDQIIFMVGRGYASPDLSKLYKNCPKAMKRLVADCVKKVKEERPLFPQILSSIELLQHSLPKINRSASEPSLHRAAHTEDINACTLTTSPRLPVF
Conditions: at 1 µM
Give bare numbers, in %.

Check out these entries, answers already filled in.
Which residual activity value is on record for "COc1ccc(S(=O)(=O)N(CCO)c2ccccc2CN(C)C/C=C/c2ccc(Cl)cc2)cc1" ?
78

Which residual activity value is on record for "Ic1cccc(CSc2nnc(-c3ccncc3)o2)c1" ?
77

Which residual activity value is on record for "CC(=O)O/N=C1\C(=C2\C(=O)Nc3cc(Br)ccc32)Nc2ccccc21" ?
80

Which residual activity value is on record for "O=c1cc(-c2cccc3c2Sc2ccccc2S3)oc(N2CCOCC2)c1" ?
96

Which residual activity value is on record for "Cc1cc2ncc(-c3ccccc3)nc2cc1C" ?
97

Hi team, please reply with residual activity for each item in this list.
1. Cc1cccc(-c2[nH]c(C(C)(C)C)nc2-c2ccc3c(c2)OCO3)n1
2. Nc1ccc2ncnc(NCCc3ccc(Oc4ccccc4)cc3)c2c1
3. CCC(=O)Nc1ccc2ncnc(Nc3cccc(Br)c3)c2c1
4. N#C/C(=C(\N)Sc1ccc(N)cc1)c1ccccc1C(F)(F)F

1. 82
2. 82
3. 77
4. 76

Data provenance is ChEMBL document CHEMBL2218924.
